B1: Osa-1-4 twister ribozyme (parent)
chain: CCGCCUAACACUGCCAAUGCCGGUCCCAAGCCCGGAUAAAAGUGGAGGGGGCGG

- Variants of: B1
- experimental-protocol: self-cleavage, relative activity (ratio to wild type); higher = more cleavage; co-transcriptional
Below, each entry is listed alongside its reported self-cleavage.
// keep it numeric: no unit symbol after the value

Sample records with self-cleavage:
Req: Request the reported self-cleavage associated with CCGCCUAACACUGCCAAUGCCGGUCUCAAGCUCGGAUAAAAGUGGAGGGGGCGG
Resp: 0.09

Req: Which self-cleavage reading was recorded for the variant CCGCCUAACACUGCCAAUGCCGAUCCCAAGCCCGGAUAAAGGUGGAGGGGGCGG ?
Resp: 0.12

Req: Which self-cleavage reading was recorded for the variant CCGCCUAACACUACCAAUGGCGGUCCCAAGCCCGGAUAAAAGUGGAGGGGGCGG ?
Resp: 0.03

Req: Consider the variant CCGCCUAACACUGCCAAUGCCGGUCGCAAGACCGGAUAAAAGUGGAGGGGGCGG and give its measured self-cleavage.
Resp: 0.02

Req: Query: self-cleavage; subject: CCGCCUAACACUGCCAAUGCCGGUCCCAUGCCCGGAUAAAGGUGGAGGGGGCGG
Resp: 0.06

***
Req: Data request, read-out self-cleavage, for CCGCCUAAAACUGCCAAUGCCGGUCCCAAGCCCGGAUAAAAGUGGAAGGGGCGG
Resp: 0.05

Req: Fill blank: measured self-cleavage of the variant CCGCCUAACACUCCCAAUGCCGGUCCCAAGCCCGGAUAAAAGUGGAGGGGACGG is ____.
Resp: 0.02

Req: Requested read-out: self-cleavage. Entry: CCGCCUAACACUACCAAUGCCGGUCCCAAGUCCGGAUAAAAGUGGAGGGGGCGG
Resp: 0.89

Req: Suppose we examine the variant CCGCCUAACGCUGCCAAUGCAGGUCCCAAGCCCGGAUAAAAGUGGAGGGGGCGG ; what self-cleavage value has been reported?
Resp: 0.33

Req: Which measured self-cleavage value corresponds to CCGCCUAACACUGCCAAUGCCGGUCCCUAGCCCGGAAAAAAGUGGAGGGGGCGG ?
Resp: 0.68

Req: Quick one: self-cleavage for CCGCCUAACACUGCCAAUGCCGGUCCCAAGCCUGGAUAAAAGUGGAGGGGACGG ?
Resp: 0.35

Req: Requested field: self-cleavage. Item: CCGCCUAACACUGCCAUUGCCGGUCCCAAGCCCGGAUGAAAGUGGAGGGGGCGG
Resp: 1.02

Req: What value of self-cleavage has been recorded for this entry: CCGCCUAACACUGGCAAUGCUGGUCCCAAGCCCGGAUAAAAGUGGAGGGGGCGG
Resp: 0.16

Req: Value lookup for self-cleavage; key = CCGCCUAACACUGGCAAUGCCGGUCCCAAGCCCUGAUAAAAGUGGAGGGGGCGG
Resp: 0.06
